The following compounds each carry a recorded IC50 for 5-hydroxytryptamine receptor 2C (Homo sapiens).

IC50 reported for this compound O=C(NCc1cccc2cc(CN3CCOCC3)cnc12)c1ccc(-c2ccc(F)cc2)nc1 : > 100 µM

IC50 reported for this compound CN(CC(=O)N(C)C)Cc1cnc2c(Cn3cnc4cc(-c5ccc(Cl)cc5)sc4c3=O)cccc2c1 : > 100 µM

IC50 reported for this compound O=C(NCc1cccc2cc(CN3CCC(O)CC3)cnc12)c1ccc(-c2ccc(F)cc2)cc1 : 2.81 µM

IC50 reported for this compound O=c1c2sc(-c3ccc(Cl)cc3)cc2ncn1Cc1cccc2cc(CN3CCCC3)cnc12 : > 100 µM

IC50 reported for this compound CCN(CC)Cc1cnc2c(CNC(=O)c3ccc(-c4ccc(F)cc4)nc3)cccc2c1 : 14.1 µM

IC50 reported for this compound O=c1c2sc(-c3ccc(Cl)cc3)cc2ncn1Cc1cccc2cc(CN3CCC(O)CC3)cnc12 : > 100 µM

IC50 reported for this compound CN1CCN(Cc2cnc3c(Cn4cnc5cc(-c6ccc(Cl)cc6)sc5c4=O)cccc3c2)CC1 : > 100 µM
